Data provenance is patent US20220211812A1.

Molecular target: T1, human RXFP1 receptor (human, UniProt Q9HBX9 1-757)
T1 sequence (looked up): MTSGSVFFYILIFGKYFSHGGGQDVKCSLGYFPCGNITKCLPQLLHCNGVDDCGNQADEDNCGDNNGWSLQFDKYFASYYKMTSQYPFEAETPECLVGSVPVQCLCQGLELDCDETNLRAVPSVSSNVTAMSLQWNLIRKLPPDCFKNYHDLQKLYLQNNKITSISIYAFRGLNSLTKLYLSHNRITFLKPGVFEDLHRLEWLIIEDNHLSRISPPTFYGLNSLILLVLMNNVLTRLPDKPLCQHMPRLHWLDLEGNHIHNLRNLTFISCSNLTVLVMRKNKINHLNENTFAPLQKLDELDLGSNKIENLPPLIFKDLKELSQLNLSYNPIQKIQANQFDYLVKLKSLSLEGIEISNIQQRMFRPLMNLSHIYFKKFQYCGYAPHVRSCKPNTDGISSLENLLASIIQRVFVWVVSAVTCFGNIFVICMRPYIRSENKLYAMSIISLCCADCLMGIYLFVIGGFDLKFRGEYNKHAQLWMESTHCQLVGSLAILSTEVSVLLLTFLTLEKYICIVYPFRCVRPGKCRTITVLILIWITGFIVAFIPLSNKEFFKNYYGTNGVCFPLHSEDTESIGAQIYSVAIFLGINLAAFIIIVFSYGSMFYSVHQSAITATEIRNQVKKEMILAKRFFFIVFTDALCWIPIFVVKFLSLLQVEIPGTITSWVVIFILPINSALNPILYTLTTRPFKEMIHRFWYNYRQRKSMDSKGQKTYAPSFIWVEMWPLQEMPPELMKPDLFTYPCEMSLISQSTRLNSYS
Assay: cell-based or functional assay
# note: exactly 0.4 nM is not below, so it is Not fulfilled; use Fulfilled for hRXFP1/CHO-K1 cAMP EC50 (nM, avg) strictly under it

Use the examples below as a reference point.
Input AQ1-EEEGGG-Glu^γ-C17-COOH (ligand, not fully specified; Glu^γ bonded by amide to fatty acid -C17-COOH; oxime-linked to pAcF of the A chain; pAcF (para-acetyl-L-phenylalanine) at position 1, oxime-linked to PK enhancer EEEGGG-Glu^γ-C17-COOH) chain 1: XLYSALANKCCHVGCTKRSLARFC chain 2: ASWMEEVIKLCGRELVRAQIAICGMSTWS peptide: EEEGGGE ; condition: hRXFP1/CHO-K1 cAMP EC50 (nM, avg) strictly below 0.4 nM. Does it hold? Not fulfilled

Input AQ1-SGGGS-Glu^γ-C14-COOH (ligand, not fully specified; Glu^γ bonded by amide to fatty acid -C14-COOH; oxime-linked to pAcF of the A chain; pAcF (para-acetyl-L-phenylalanine) at position 1, oxime-linked to PK enhancer SGGGS-Glu^γ-C14-COOH) chain 1: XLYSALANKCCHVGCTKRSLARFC chain 2: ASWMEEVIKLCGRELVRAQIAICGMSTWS peptide: SGGGSE ; condition: hRXFP1/CHO-K1 cAMP EC50 (nM, avg) strictly below 0.4 nM. Does it hold? Fulfilled

Input AQ1-KK-Glu^γ-C14-CH3 (ligand, not fully specified; Glu^γ bonded by amide to fatty acid -C14-CH3; oxime-linked to pAcF of the A chain; pAcF (para-acetyl-L-phenylalanine) at position 1, oxime-linked to PK enhancer KK-Glu^γ-C14-CH3) chain 1: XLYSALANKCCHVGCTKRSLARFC chain 2: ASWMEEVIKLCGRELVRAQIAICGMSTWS peptide: KKE ; condition: hRXFP1/CHO-K1 cAMP EC50 (nM, avg) strictly below 0.4 nM. Does it hold? Fulfilled

Input AQ1-GGGKKK-Glu^γ-C13-COOH (ligand, not fully specified; Glu^γ bonded by amide to fatty acid -C13-COOH; oxime-linked to pAcF of the A chain; pAcF (para-acetyl-L-phenylalanine) at position 1, oxime-linked to PK enhancer GGGKKK-Glu^γ-C13-COOH) chain 1: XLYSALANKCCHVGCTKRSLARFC chain 2: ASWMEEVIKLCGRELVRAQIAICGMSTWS peptide: GGGKKKE ; condition: hRXFP1/CHO-K1 cAMP EC50 (nM, avg) strictly below 0.4 nM. Does it hold? Fulfilled

Input AQ1-KGPKGP-Glu^γ-C14-COOH (ligand, not fully specified; Glu^γ bonded by amide to fatty acid -C14-COOH; oxime-linked to pAcF of the A chain; pAcF (para-acetyl-L-phenylalanine) at position 1, oxime-linked to PK enhancer KGPKGP-Glu^γ-C14-COOH) chain 1: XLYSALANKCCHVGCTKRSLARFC chain 2: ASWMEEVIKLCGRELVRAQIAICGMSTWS peptide: KGPKGPE ; condition: hRXFP1/CHO-K1 cAMP EC50 (nM, avg) strictly below 0.4 nM. Does it hold? Fulfilled

We next turn to a different binder, shown below.
Input AQ1-EEEGGG-dGlu^γ-C13-COOH (ligand, not fully specified; dGlu^γ = D-glutamic acid (gamma), linked to fatty acid -C13-COOH; oxime-linked to pAcF of the A chain; pAcF (para-acetyl-L-phenylalanine) at position 1, oxime-linked to PK enhancer EEEGGG-dGlu^γ-C13-COOH) chain 1: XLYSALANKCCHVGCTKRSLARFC chain 2: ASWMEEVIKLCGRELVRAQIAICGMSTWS peptide: EEEGGGE ; condition: hRXFP1/CHO-K1 cAMP EC50 (nM, avg) strictly below 0.4 nM. Does it hold? Not fulfilled
